test system: Bacillus subtilis W168; test: Disk sensitivity test (modified Kirby-Bauer), B. subtilis; format: cell-based; settings: 5.7 × 10^−6 mM;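 note: Compound-loaded filter disks on LB agar plates seeded with a bacterial lawn, plates held overnight at 37 °C, then the clear zone around each disk measured, compounds in DMSO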
valueKind: Diameter of the zone of growth inhibition (mm)

molecule="FC(F)(F)C(F)(F)C(F)(F)C(=Nc1c(Cl)cccc1Cl)N=C(Nc1c(Cl)cccc1Cl)C(F)(F)C(F)(F)C(F)(F)F [[N{(C3F7)C(2,6-Cl2C6H3)N}2]H]" observedmeasurement=7.5
molecule="Fc1cccc(C(F)(F)F)c1N=C(N=C([N]([Ag])c1c(F)cccc1C(F)(F)F)C(F)(F)C(F)(F)C(F)(F)F)C(F)(F)C(F)(F)C(F)(F)F [[N{(C3F7)C(2-F,6-CF3C6H3)N}2]Ag]" observedmeasurement=9.0
molecule="Fc1cccc(C(F)(F)F)c1N=C(N=C(Nc1c(F)cccc1C(F)(F)F)C(F)(F)C(F)(F)C(F)(F)F)C(F)(F)C(F)(F)C(F)(F)F [[N{(C3F7)C(2-F,6-(CF3)C6H3)N}2]H]" observedmeasurement=8.0

###

test system: Escherichia coli HB101; assay: Disk sensitivity test (modified Kirby-Bauer), E. coli; type: cell-based; conditions: 5.7 × 10^0 mM
valueKind: Diameter of the zone of growth inhibition (mm)

compound="FC(F)(F)C(F)(F)C(F)(F)C(=Nc1c(Cl)cccc1Cl)N=C(Nc1c(Cl)cccc1Cl)C(F)(F)C(F)(F)C(F)(F)F [[N{(C3F7)C(2,6-Cl2C6H3)N}2]H]" valueunit=mm observedmeasurement=8.0
compound="Fc1c(F)c(F)c(N=C(N=C(Nc2c(F)c(F)c(F)c(F)c2F)C(F)(F)C(F)(F)C(F)(F)F)C(F)(F)C(F)(F)C(F)(F)F)c(F)c1F [[N{(C3F7)C(C6F5)N}2]H]" valueunit=mm observedmeasurement=9.0
compound="FC(F)(F)C(F)(F)C(F)(F)C(=Nc1c(Cl)cccc1Cl)N=C([N]([Ag])c1c(Cl)cccc1Cl)C(F)(F)C(F)(F)C(F)(F)F [[N{(C3F7)C(2,6-Cl2C6H3)N}2]Ag]" valueunit=mm observedmeasurement=16.0
compound="Fc1cccc(C(F)(F)F)c1N=C(N=C(Nc1c(F)cccc1C(F)(F)F)C(F)(F)C(F)(F)C(F)(F)F)C(F)(F)C(F)(F)C(F)(F)F [[N{(C3F7)C(2-F,6-(CF3)C6H3)N}2]H]" valueunit=mm observedmeasurement=8.5
compound="Cc1cc(C)c(N=C(N=C(Nc2c(C)cc(C)cc2C)C(F)(F)C(F)(F)C(F)(F)F)C(F)(F)C(F)(F)C(F)(F)F)c(C)c1 [[N{(C3F7)C(Mes)N}2]H]" valueunit=mm observedmeasurement=8.0
compound="Fc1c(F)c(F)c(N=C(N=C([N]([Ag])c2c(F)c(F)c(F)c(F)c2F)C(F)(F)C(F)(F)C(F)(F)F)C(F)(F)C(F)(F)C(F)(F)F)c(F)c1F [[N{(C3F7)C(C6F5)N}2]Ag]" valueunit=mm observedmeasurement=14.0
compound="Fc1cccc(C(F)(F)F)c1N=C(N=C([N]([Ag])c1c(F)cccc1C(F)(F)F)C(F)(F)C(F)(F)C(F)(F)F)C(F)(F)C(F)(F)C(F)(F)F [[N{(C3F7)C(2-F,6-CF3C6H3)N}2]Ag]" valueunit=mm observedmeasurement=12.5

###

tested on: Escherichia coli HB101; assay: Disk sensitivity test (modified Kirby-Bauer), E. coli; assay type: cell-based; conditions: 5.7 × 10^−2 mM;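 note: filter disk loaded with compound in DMSO laid on an LB agar bacterial lawn, kept overnight at 37 °C, then the inhibition zone around the disk is measured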
Below, each entry is listed with its recorded Diameter of the zone of growth inhibition.
valueKind: Diameter of the zone of growth inhibition (mm)

compound="FC(F)(F)C(F)(F)C(F)(F)C(=Nc1c(Cl)cccc1Cl)N=C([N]([Ag])c1c(Cl)cccc1Cl)C(F)(F)C(F)(F)C(F)(F)F [[N{(C3F7)C(2,6-Cl2C6H3)N}2]Ag]" targetortestsystem="Escherichia coli HB101" observedmeasurement=9.0
compound="Fc1c(F)c(F)c(N=C(N=C([N]([Ag])c2c(F)c(F)c(F)c(F)c2F)C(F)(F)C(F)(F)C(F)(F)F)C(F)(F)C(F)(F)C(F)(F)F)c(F)c1F [[N{(C3F7)C(C6F5)N}2]Ag]" targetortestsystem="Escherichia coli HB101" observedmeasurement=8.5
compound="Fc1cccc(C(F)(F)F)c1N=C(N=C(Nc1c(F)cccc1C(F)(F)F)C(F)(F)C(F)(F)C(F)(F)F)C(F)(F)C(F)(F)C(F)(F)F [[N{(C3F7)C(2-F,6-(CF3)C6H3)N}2]H]" targetortestsystem="Escherichia coli HB101" observedmeasurement=7.0
